Entry source: patent US20250042922A1

Recorded IC50 by entry
experimental.target: GDP-loaded wild-type KRAS (WT) (Homo sapiens)

{"smiles.string": "C#Cc1c(F)ccc2cc(N)cc(-c3nc4c5c(nc(OC[C@@]67CCCN6[C@H](COC(C(F)(F)F)(C(F)(F)F)C(F)(F)F)CC7)nc5c3F)N3C[C@@]5(F)CC[C@](F)(N5)[C@@H]3[C@@H](C)C4)c12", "experimental.target": "GDP-loaded wild-type KRAS (WT) (Homo sapiens)", "result.units": "nM", "censor.symbol": ">", "IC50": 100}
{"smiles.string": "N#Cc1c(N)sc2c(F)ccc(-c3nc4c5c(nc(OC[C@@]67CCCN6C[C@H](F)C7)nc5c3F)N3C[C@@]5(F)CC[C@](F)(N5)[C@@H]3CC4)c12", "experimental.target": "GDP-loaded wild-type KRAS (WT) (Homo sapiens)", "result.units": "nM", "censor.symbol": "=", "IC50": 0.18}
{"smiles.string": "Nc1cc(-c2nc3c4c(nc(OCC56CCCN5CCC6)nc4c2F)N2C[C@@]4(F)CC[C@](F)(N4)[C@H]2CCC3)c2c(OC(F)(F)F)c(F)ccc2c1", "experimental.target": "GDP-loaded wild-type KRAS (WT) (Homo sapiens)", "result.units": "nM", "censor.symbol": "=", "IC50": 18.5}

----------
experimental.target: GDP-loaded wild-type KRAS (WT) (Homo sapiens, UniProt P01116)
Sequence (P01116 1-188 isoform P01116-2): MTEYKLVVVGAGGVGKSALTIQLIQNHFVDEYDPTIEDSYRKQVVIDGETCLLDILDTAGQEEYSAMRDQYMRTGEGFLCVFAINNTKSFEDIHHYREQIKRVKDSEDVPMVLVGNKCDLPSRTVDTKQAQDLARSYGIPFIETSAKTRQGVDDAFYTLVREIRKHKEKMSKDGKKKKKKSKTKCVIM
pIC50: −log10 of the molar value.
readout: pIC50

{"smiles.string": "C[C@H]1Cc2nc(-c3cc(N)cc4ccc(F)c(F)c34)c(F)c3nc(OCC45CCCN4CCC5)nc(c23)N2C[C@@]3(F)CC[C@](F)(N3)[C@H]12", "measured.number": 9.57}
{"smiles.string": "N#Cc1c(N)sc2c(F)ccc(-c3nc4c5c(nc(OCC67CCCN6CCC7)nc5c3F)N3C[C@@]5(F)CC[C@](F)(N5)[C@H]3CCC4)c12", "measured.number": 8.00}
{"smiles.string": "C/C=C\\c1c(Cl)cc2[nH]ncc2c1-c1nc2c3c(nc(OCC45CCCN4CCC5)nc3c1F)N1C[C@@]3(F)CC[C@](F)(N3)[C@H]1CCC2", "measured.number": 8.73}

----------
experimental.target: GDP-loaded KRAS-G12V (Homo sapiens, UniProt P01116, G12V)
Sequence (P01116 1-188 isoform P01116-2 G12V): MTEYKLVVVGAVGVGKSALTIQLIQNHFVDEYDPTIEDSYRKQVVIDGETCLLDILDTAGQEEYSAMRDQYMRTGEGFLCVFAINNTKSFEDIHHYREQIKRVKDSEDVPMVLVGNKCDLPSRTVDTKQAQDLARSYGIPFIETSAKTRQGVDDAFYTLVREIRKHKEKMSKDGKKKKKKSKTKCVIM
assay.overview: KRAS (GDP) biochemical TR-FRET probe displacement assay, G12V
run.conditions: 2 hours
readout: IC50 (nM)

{"molecule": "N#Cc1c(N)sc2c(F)ccc(-c3nc4c5c(nc(OC[C@@]67CCCN6C[C@H](F)C7)nc5c3F)N3C[C@@]5(F)CC[C@](F)(N5)[C@@H]3CC4)c12 [Example 4-21]", "measured.number": 0.844}
{"molecule": "C#Cc1c(F)ccc2cc(O)cc(-c3c(F)c4c5c(nc(OC[C@@]67CCCN6C[C@H](F)C7)nc5c3F)N3C[C@@]5(F)CC[C@H](N5)[C@H]3CC4)c12 [Example 4-41]", "measured.number": 0.949}
{"molecule": "C[C@H]1Cc2nc(-c3cc(N)cc(Cl)c3C(F)(F)F)c(F)c3nc(OCC45CCCN4CCC5)nc(c23)N2C[C@@]3(F)CC[C@](F)(N3)[C@H]12 [Example 4-17]", "measured.number": 0.865}
{"molecule": "C#Cc1c(F)c(F)cc2cc(N)cc(-c3nc4c5c(nc(OCC67CCCN6CCC7)nc5c3F)N3C[C@@]5(F)CC[C@](F)(N5)[C@@H]3[C@@H](C)C4)c12 [Example 5-7]", "measured.number": 0.723}
{"molecule": "C[C@H]1Cc2nc(-c3ccc(F)c4sc(N)c(C#N)c34)c(F)c3nc(OCC45CCCN4CCC5)nc(c23)N2C[C@@]3(F)CC[C@](F)(N3)[C@H]12 [Example 4-14]", "measured.number": 0.537}
